Catalogue of concentration at 24 h values
Assay: Tissue concentrations of Formula I and its metabolites in Göttingen pigs after a single oral or intravenous dose (LC-MS/MS)
Format: in vivo
Settings: both sexes, Göttingen, pig (minipig); kidney; single oral dose of Formula I 125 mg/kg; 24 hpd; read-out: Tissue concentration, kidney
REPORTED_METRIC: concentration at 24 h (ng/g)

CC1(O)[C@@H](O)[C@@H](COP(=O)(O)O)O[C@H]1n1ccc(=O)[nH]c1=S (stereo partly drawn)	85.5
C[C@@]1(O)[C@H](O)[C@@H](CO)O[C@H]1n1ccc(=O)[nH]c1=S	2740
C[C@H](NP(=O)(O)OC[C@H]1O[C@@H](n2ccc(=O)[nH]c2=S)C(C)(O)C1O)C(=O)O (stereo in doubt)	30

====

Test: Tissue concentrations of Formula I and its metabolites in Göttingen pigs after a single oral or intravenous dose (LC-MS/MS)
Type: in vivo
Details: both sexes, Göttingen, pig (minipig); spleen; single intravenous bolus of Formula I 25 mg/kg; 2 hpd; read-out: Tissue concentration, spleen
Method: Tissue samples were collected at 3, 12, and 24 hours post-dose (hpd) for the oral dose and 2 and 12 hpd for the intravenous dose, snap-frozen in liquid nitrogen, and stored at −60 to −90° C. until shipment on dry ice for analysis by LC-MS/MS. Animals were weighed the day prior to dosing to determine the dosing volume. The compound of Formula I was dissolved in a PEG 400/DI water (60%/40% v/v) vehicle for oral dosing. […] The exact weight (in milligrams) of each sample was recorded. […]
REPORTED_METRIC: concentration at 2 h (ng/g)

CC1(O)[C@@H](O)[C@@H](COP(=O)(O)OP(=O)(O)OP(=O)(O)O)O[C@H]1n1ccc(=O)[nH]c1=S (stereo partly shown) [Formula V]	318
C[C@@]1(O)[C@H](O)[C@@H](CO)O[C@H]1n1ccc(=O)[nH]c1=S [Formula VI]	1620
CC1(O)[C@@H](O)[C@@H](COP(=O)(O)O)O[C@H]1n1ccc(=O)[nH]c1=S (stereo partly shown) [Formula III]	240
C[C@H](NP(=O)(O)OC[C@H]1O[C@@H](n2ccc(=O)[nH]c2=S)C(C)(O)C1O)C(=O)O (stereo in doubt) [Formula II]	530

====

Assay: Tissue concentrations of Formula I and its metabolites in Göttingen pigs after a single oral or intravenous dose (LC-MS/MS)
Assay type: in vivo
Details: both sexes, Göttingen, pig (minipig), 125 mg/kg; liver; 12 hpd after oral dosing with Formula I; assumed tissue density of 1 g/mL; read-out: Concentration present in the liver
REPORTED_METRIC: concentration at 12 h

CC1(O)[C@@H](O)[C@@H](COP(=O)(O)OP(=O)(O)OP(=O)(O)O)O[C@H]1n1ccc(=O)[nH]c1=S (stereo partly shown)	~1000 nM

====

Test: Tissue concentrations of Formula I and its metabolites in Göttingen pigs after a single oral or intravenous dose (LC-MS/MS)
Assay type: in vivo
Details: both sexes, Göttingen, pig (minipig); heart; single intravenous bolus of Formula I 25 mg/kg; 2 hpd; read-out: Tissue concentration, heart
REPORTED_METRIC: concentration at 2 h (ng/g)

C[C@H](NP(=O)(O)OC[C@H]1O[C@@H](n2ccc(=O)[nH]c2=S)C(C)(O)C1O)C(=O)O (stereo in doubt) [Formula II]	292
C[C@@]1(O)[C@H](O)[C@@H](CO)O[C@H]1n1ccc(=O)[nH]c1=S [Formula VI]	1990
